Numbers sourced from ChEMBL document CHEMBL1201862.

tested on: T47D; experiment: NCI tumour cell line growth inhibition, 48 h
Activity calls are given as the source filed them. No stated cut-off is given here; in the data, active = GI50 up to about 1.1 µM and inactive = higher.
measured_property: GI50

{"columns": ["molecule", "target_system", "measured_property", "measured_value"],
 "data": [
  ["CCOC(=O)C1(N)CCc2[nH][nH]c(=O)c2C1 (stereo not given)", "T47D", "GI50", "> 100 µM (inactive)"],
  ["CC1=C(C)CC2C(=O)N(c3cc(C(C)(C)C)ccc3C(C)(C)C)C(=O)C2C1 (stereo not given)", "T47D", "GI50", "> 100 µM (inactive)"],
  ["COc1ccc(NC(C)=O)cc1N1C(=O)/C(=C\\c2cc(OC)c(OC)c(OC)c2)S(=O)(=O)C1c1ccccc1 (stereo not given)", "T47D", "GI50", "38.3 µM (inactive)"],
  ["CN(CCN(C)C(=S)NN)C(=S)NN", "T47D", "GI50", "> 100 µM (inactive)"],
  ["Clc1ccc(Cc2nc3cc(Cl)c(Cl)cc3n2CC2CCCN3CCCCC23)cc1Cl (stereo not given)", "T47D", "GI50", "7.29 µM (inactive)"]
]}

====

GI50 values for the molecules below.
test system: SF-539; test: NCI tumour cell line growth inhibition, 48 h
Active and inactive are the calls of the source. Cut-off read from the data, not from the text of the source: active = GI50 up to about 1.1 µM and inactive = higher.

{"columns": ["molecule", "GI50"],
 "data": [
  ["CCCSc1ccc2[nH]c(N3C(=O)/C(=C/c4ccc(SC)cc4)N=C3c3ccccc3)cc2c1", "14 µM (inactive)"],
  ["O=C(Nc1ccccc1)c1cc(S(=O)(=O)NC2=Nc3ccc(Cl)cc3C(c3ccccc3)N2)c(SSc2cc(Cl)c(C(=O)Nc3ccccc3)cc2S(=O)(=O)NC2=Nc3ccc(Cl)cc3C(c3ccccc3)N2)cc1Cl (configuration not stated)", "> 100 µM (inactive)"],
  ["CC(=O)OCc1nnn2c1C(OC(C)=O)CC2 (configuration not stated)", "> 100 µM (inactive)"],
  ["CCC1C2C=CC(CC2)N1S(=O)(=O)c1ccc(C)cc1 (configuration not stated)", "20.7 µM (inactive)"],
  ["O=c1c(-c2ccc(O)cc2)coc2cc(OC3OC(CO)C(O)C(O)C3O)cc(O)c12 (configuration not stated)", "31.1 µM (inactive)"],
  ["C/C(=N/O)c1cccc(Nc2nc3ccccc3c3[nH]c4ccccc4c23)c1", "5.74 µM (inactive)"],
  ["Cc1ccc(/C=N/n2c(Cc3ccccc3)n[nH]c2=O)cc1", "> 100 µM (inactive)"]
]}

====

system: KM-20L2; assay: NCI tumour cell line growth inhibition, 48 h
Activity calls are given as the source filed them. No stated cut-off is given here; in the data, active = GI50 up to about 1.1 µM and inactive = higher.
GI50 values for the compounds below.
measured_property: GI50

{"columns": ["compound", "target_system", "measured_value"],
 "data": [
  ["COP(=O)(CC(=O)C1OC(C)(C)OC1C(O)COCc1ccccc1)OC (stereo not given)", "KM-20L2", "> 100 µM (inactive)"],
  ["C#CCOCn1cnc2ncnc(Cl)c21", "KM-20L2", "> 100 µM (inactive)"],
  ["C=CC/N=C1/N=C(CC(=O)OCC)CS1", "KM-20L2", "> 100 µM (inactive)"],
  ["CC(=O)OCc1nnn2c1C(OC(C)=O)CC2 (stereo not given)", "KM-20L2", "> 100 µM (inactive)"],
  ["CC1CCC[P+](Cc2ccccc2)(c2ccccc2)CC1 (stereo not given)", "KM-20L2", "50.6 µM (inactive)"]
]}
